target: NMDA receptor (rat cortical membranes) (Rattus norvegicus); construct: from tissue; host or cells: rat cerebral cortex membranes; assay: [3H]MK-801 binding assay (potentiation of binding); details: read-out: [3H] MK-801 binding assay: EC50
Observation type: EC50 (µM)
Give bare numbers, in µM.

For the compound CC(=O)O[C@H](C)[C@H](NC(=O)CN1CC2(CCCN2)C1=O)C(N)=O (stereo partly drawn) [Compound 6S-FNL-3] , what EC50 is on record?
1.69
